assay: in vitro; settings: human, plasma, pH 7.5, half-life, 50% pooled human plasma in PBS

{"molecule": "C/C(=C\\CCP(=O)(OCOC(=O)C(C)(C)C)OCOC(=O)C(C)(C)C)CO [Compound 2]", "half-life": "~8 min"}
